Dear all, this message contains pKi results, target or system Kappa-type opioid receptor (Homo sapiens, UniProt P41145).
Numbers only, as −log10 of the molar value.

Need pKi for each of these compounds.
1. Cc1nc2cc3c(cc2[nH]1)[C@@]1(C)CCN(CC2CC2)C(C3)[C@@H]1C
2. C[C@H]1C2Cc3cc4cc[nH]c4cc3[C@@]1(C)CCN2CC1CC1
3. C[C@H]1[C@H]2Cc3ccc(O)cc3[C@]1(C)CCN2CC1CC1 [CYCLAZOCINE]
4. C[C@H]1C2Cc3ccc4[nH]cnc4c3[C@@]1(C)CCN2CC1CC1
5. C[C@H]1C2Cc3cc4[nH]cnc4cc3[C@@]1(C)CCN2CC1CC1
6. C[C@H]1C2Cc3cc4nc(O)[nH]c4cc3[C@@]1(C)CCN2CC1CC1

10.30
8.15
10.15
9.04
10.20
7.92

Report measured pKi; entry is Cc1nc2c3c(ccc2[nH]1)CC1[C@H](C)[C@]3(C)CCN1CC1CC1
9.29

---

- METHOD_NOTES: Displacement of [3H]Naltrindole from human delta opioid receptor expressed in CHO cells
OBSERVABLE: pKi
One number for each entry, as −log10 of the molar value.

Give the measured pKi for C[C@H]1C2Cc3cc4cc[nH]c4cc3[C@@]1(C)CCN2CC1CC1
6.60
